condition: human gut metagenome, 24 h, 2 µM; further: call rule not given here
observed.property: Bacterial Biotransformation

Worked examples, 6 compounds total:
1) CNCC[C@H](Oc1cccc2ccccc12)c1cccs1 [DULOXETINE]: Compound NOT metabolized
2) CC(=O)O[C@H]1C(=O)[C@@]2(C)[C@H]([C@H](OC(=O)c3ccccc3)[C@]3(O)C[C@H](OC(=O)[C@H](O)[C@@H](NC(=O)c4ccccc4)c4ccccc4)C(C)=C1C3(C)C)[C@]1(OC(C)=O)CO[C@@H]1C[C@@H]2O [PACLITAXEL]: Compound NOT metabolized
3) CN(CCOc1ccc(CC2SC(=O)NC2=O)cc1)c1ccccn1.O=C(O)/C=C\C(=O)O (configuration not stated) [ROSIGLITAZONE MALEATE]: Compound metabolized
4) CCCCCNC(=N)N/N=C/c1c[nH]c2ccc(OC)cc12.O=C(O)/C=C\C(=O)O [TEGASEROD MALEATE]: Compound NOT metabolized
5) C[C@@H](c1ncncc1F)[C@](O)(Cn1cncn1)c1ccc(F)cc1F [VORICONAZOLE]: Compound metabolized
6) OC(c1cc(C(F)(F)F)nc2c(C(F)(F)F)cccc12)C1CCCCN1 (configuration not stated) [MEFLOQUINE]: Compound metabolized

Could you now consider this next compound?
Asked: Which Bacterial Biotransformation reading was recorded for the compound O=C(NC(Cc1cc(=O)[nH]c2ccccc12)C(=O)O)c1ccc(Cl)cc1 (configuration not stated) [REBAMIPIDE] ?
Given back: Compound NOT metabolized
